assay: amyloid nucleation score (Sup35N fusion, yeast selection) (log enrichment); library NNK2; higher = more nucleation; inactive = no reads after selection;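 note: zero at mode of non-aggregating sequences after 7 days selection at 30°C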
Is amyloid nucleation score at least -0.3? Then Y. If not, N.

[[record]]
substance = "PMRMKFCQWLFHPP"
label_value = "N"

[[record]]
substance = "CFAYSSWDTPDMMAWVCRWD"
label_value = "Y"

[[record]]
substance = "RSSSNWSTSGGILRYVVLPK"
label_value = "Y"

[[record]]
substance = "YVRYGP"
label_value = "Y"

[[record]]
substance = "MDFVNTIATCNKKREVRFVI"
label_value = "N"


* * *

test: amyloid nucleation score (Sup35N fusion, yeast selection) (log enrichment); library NNK2; higher = more nucleation; inactive = no reads after selection
ENDPOINT: amyloid nucleation score

[[record]]
substance = "RLYIIIRFGIVHVT"
endpoint = "amyloid nucleation score"
observed_value = -0.078

[[record]]
substance = "GVNILTLWHWIYFNTTVQNN"
endpoint = "amyloid nucleation score"
observed_value = -1.19

[[record]]
substance = "FSEVSCGLCTMYTLFVEFFN"
endpoint = "amyloid nucleation score"
observed_value = 0.174

[[record]]
substance = "GSVFLRGTYWVLKDVCGWKE"
endpoint = "amyloid nucleation score"
observed_value = 0.391

[[record]]
substance = "LWAPAYCLIKC"
endpoint = "amyloid nucleation score"
observed_value = 0.851

[[record]]
substance = "IYCNNPRWSFLHSLKLEPLG"
endpoint = "amyloid nucleation score"
observed_value = -0.476

[[record]]
substance = "LFDGASMSRRIVMWDMGWWG"
endpoint = "amyloid nucleation score"
observed_value = 4.54

[[record]]
substance = "GEDHYIPQLFDGSVIILART"
endpoint = "amyloid nucleation score"
observed_value = 0.117

[[record]]
substance = "YVNNLGRFCLLYRPWGMVNS"
endpoint = "amyloid nucleation score"
observed_value = -0.196

[[record]]
substance = "DMTVLYCMFCSLSWQINCFR"
endpoint = "amyloid nucleation score"
observed_value = 0.838

